Here, each record is paired with measured growth inhibition data.
# PROTOCOL_NOTES: NCI Yeast Anticancer Drug Screen. Data for the rad50EPP+ strain (AID 151);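 further: 0% = growth of vehicle-treated control cultures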
# PARTICULARS: S. cerevisiae rad50 mutant strain, at 1.2 µM, stronger effect = higher value
Compounds without any hit were thinned out: in the full panel of roughly 79,000, 15% have a hit.
Expressed in %, but write only the number.

Answered examples (5):
[[record]]
compound = "O=C1C=CC(=Nc2ccc3c(c2)Cc2cc(NC(=O)C(F)(F)F)ccc2-3)O1"
recorded_result = 8

[[record]]
compound = "COC(=O)c1ccc(CCC2=CC(=O)C(Br)=CC2=O)cc1"
recorded_result = 2

[[record]]
compound = "Cc1ccc2ccc(O)cc2c1"
recorded_result = -25

[[record]]
compound = "CC(=O)OCCOCNC(=S)N/N=C(\\C)c1cnccn1"
recorded_result = 9

[[record]]
compound = "Nc1nc(Cl)c(Cl)c(Cl)n1"
recorded_result = 0


Qu. So what does the record say about growth inhibition for C[S+](C)C1(c2ccccc2)C(=O)c2ccccc2C1=O ?
Ans. 1

Qu. So what does the record say about growth inhibition for COc1cc(CC2CC(c3ccc4c(c3)OCO4)OC2=O)cc(OC)c1OC (configuration not stated) ?
Ans. -2

Qu. So what does the record say about growth inhibition for CC(C)(Br)C(=O)/C=C/c1ccc(Cl)c(Cl)c1 ?
Ans. 4

Qu. So what does the record say about growth inhibition for COc1ccccc1C(=O)OCC1CCCN2CCCCC12 (configuration not stated) ?
Ans. 4

Qu. So what does the record say about growth inhibition for c1ccc2c(c1)C(=NCCCN1CCCCCC1)c1cccn1-2 ?
Ans. -3

Qu. So what does the record say about growth inhibition for CCCCOC(=O)N[C@H]1CCc2cc(OC)c(OC)c(OC)c2-c2ccc(SC)c(=O)cc21 ?
Ans. 1

Qu. So what does the record say about growth inhibition for S=C(N/N=C/c1ccccn1)Nc1ccc(Cl)cc1 ?
Ans. -3

----------
# PROTOCOL_NOTES: NCI Yeast Anticancer Drug Screen. Data for the mlh1 strain (AID 171);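 further: 0% = growth of vehicle-treated control cultures of the same strain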
# PARTICULARS: S. cerevisiae mlh1 strain growth inhibition; at 1.2 µM; stronger effect = higher value
This is part of a sample that, as a whole, favours compounds with a hit. Of some 79,000 tested, about 15% had one in any assay.
MEASUREMENT_NAME: growth inhibition (%)
Expressed in %, but write only the number.

Answered examples (5):
[[record]]
compound = "CC[n+]1ccc2c(C)c3[nH]c4ccc(O)cc4c3c(C)c2c1"
recorded_result = 0

[[record]]
compound = "Cc1cc(O)cc(O)c1N=Nc1ccc([N+](=O)[O-])cc1"
recorded_result = -10

[[record]]
compound = "COC(=O)c1ccc(CCC2=CC(=O)C(Br)=CC2=O)cc1"
recorded_result = 0

[[record]]
compound = "CCN(CC)CC(O)c1ccc2ccc3ccccc3c2c1 (configuration not stated)"
recorded_result = 8

[[record]]
compound = "CC(=O)SCCC[Si](C)(C)CCCSC(C)=O"
recorded_result = -4


Qu. So what does the record say about growth inhibition for O=C(c1cc(Br)ccc1O)c1cc(Br)ccc1O ?
Ans. 23

Qu. So what does the record say about growth inhibition for COc1cccc2nc3ccccc3nc12 ?
Ans. 0

----------
# PROTOCOL_NOTES: NCI Yeast Anticancer Drug Screen. Data for the rad50 strain (AID 155);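 further: 0% = growth of vehicle-only cultures of the same strain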
# PARTICULARS: S. cerevisiae rad50 strain growth inhibition; at 5.0 µM (retest, dose inferred, filed as 0.5); stronger effect = higher value
The panel holds about 79,000 compounds, 15% with a hit somewhere; the sample as a whole holds those more often.
MEASUREMENT_NAME: growth inhibition (%)
Expressed in %, but write only the number.

Answered examples (4):
[[record]]
compound = "NC(=S)N/N=C\\c1nccc2ccccc12"
recorded_result = -151

[[record]]
compound = "Clc1ccccc1C1OC1c1ccccc1Cl (stereo not drawn)"
recorded_result = 57

[[record]]
compound = "CC(C)NC(=O)OCc1c(COC(=O)NC(C)C)c(-c2ccc(Cl)c(Cl)c2)n2c1CCC2"
recorded_result = 8

[[record]]
compound = "O=C(/C=C/c1cccc(Br)c1)c1cccs1"
recorded_result = 8


Let us move to another entry and its growth inhibition.
Qu. So what does the record say about growth inhibition for Nc1ccc2c(c1)C(=O)c1cccc(N)c1C2=O ?
Ans. 51

----------
# PROTOCOL_NOTES: NCI Yeast Anticancer Drug Screen. Data for the mec2-1 strain (AID 157)
# PARTICULARS: S. cerevisiae mec2-1 strain, at 50.0 µM (retest, dose inferred, filed as 5.0), stronger effect = higher value
Compounds without any hit were thinned out: in the full panel of roughly 79,000, 15% have a hit.
MEASUREMENT_NAME: growth inhibition (%)
Expressed in %, but write only the number.

Answered examples (3):
[[record]]
compound = "N#CC(C(=O)Nc1ccccc1)C1=C(Cl)C(=O)c2ccccc2C1=O (stereo unspecified)"
result_units = "%"
recorded_result = 99

[[record]]
compound = "O=C(CCCN1CCC2(CC1)CC(=O)N(N1CCCCCC1)C2=O)c1ccc(F)cc1"
result_units = "%"
recorded_result = 41

[[record]]
compound = "Nc1ccc2c(c1)C(=O)c1cccc(N)c1C2=O"
result_units = "%"
recorded_result = 68


Qu. So what does the record say about growth inhibition for O=C(COC(=O)c1cc(O)c(O)c(O)c1)c1ccc(-c2ccccc2)cc1 ?
Ans. 95

----------
# PROTOCOL_NOTES: NCI Yeast Anticancer Drug Screen. Data for the cln2 rad14 strain (AID 165);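 further: 0% = growth equal to vehicle treated cultures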
# PARTICULARS: S. cerevisiae cln2 rad14 strain, at 50.0 µM (retest, dose inferred, filed as 5.0)
Compounds without any hit were thinned out: in the full panel of roughly 79,000, 15% have a hit. Active and inactive are the calls of the source. Rule as the data show it: active = growth inhibition above about 70%; inactive = the rest.
Your reply should match one of these outcome classes. active, inactive

These solved cases illustrate the format of a correct answer.
[[record]]
compound = "O=C1c2ccccc2C(=O)c2cc(CBr)ccc21"
assigned_category = "active"

[[record]]
compound = "CO[C@H]1C[C@](C)(O)Cc2cc3c(c(O)c21)C(=O)c1c(O)cc2c(c1C3=O)O[C@@H]1O[C@@]2(C)[C@H](O)[C@@H](N(C)C)[C@@H]1O"
assigned_category = "inactive"

[[record]]
compound = "CCCCCCc1cc(C(=O)OC/C(C)=N/NC(N)=O)c2ccccc2n1"
assigned_category = "inactive"

[[record]]
compound = "COC1=CC(=O)C2C(C1=O)C(c1ccc(Cl)cc1)[C@@H]2C (some centres undefined)"
assigned_category = "active"

[[record]]
compound = "Oc1c(Br)cc(Br)cc1C1CCCCC1"
assigned_category = "active"


Qu. Could you check what this test reported for O=[N+]([O-])c1ccc2c(c1)C(N1CCN(CCO)CC1)Cc1ccc(F)cc1S2 (centres undefined) ?
Ans. inactive

Qu. Could you check what this test reported for Cc1c(C2=C(Br)C(=O)N(C)C2=O)c(=O)n(C)c(=O)n1C ?
Ans. inactive

Qu. Could you check what this test reported for CCCCCCCCCCCC1=C(O)C(=O)C=C(O)C1=O ?
Ans. active

Qu. Could you check what this test reported for N#CN=Nc1cc(Cl)c(N=NC#N)cc1Cl ?
Ans. inactive

Qu. Could you check what this test reported for NC(N)=N/N=C\c1c2ccccc2cc2ccccc12 ?
Ans. inactive

Qu. Could you check what this test reported for CCC/C(Cl)=N\OC(=O)Nc1cccc(C(F)(F)F)c1 ?
Ans. active

----------
# PROTOCOL_NOTES: NCI Yeast Anticancer Drug Screen. Data for the mec2-1 strain (AID 157)
# PARTICULARS: S. cerevisiae mec2-1 strain, at 50.0 µM (retest, dose inferred, filed as 5.0)
Compounds without any hit were thinned out: in the full panel of roughly 79,000, 15% have a hit. Calls of active or inactive are those of the source. No stated cut-off is given here; in the data, active means growth inhibition above about 70%; inactive means the rest.
Your reply should match one of these outcome classes. 1 (active), -1 (inactive)

Qu. Could you check what this test reported for C/C(=N\NC(=S)N1CCCCC1)c1cccc(C)n1 ?
Ans. 1

Qu. Could you check what this test reported for O=C1Nc2ccccc2/C1=C/COc1ccccc1 ?
Ans. 1

Qu. Could you check what this test reported for CC1CCN(CCC(=O)c2ccc(Cl)cc2)CC1 ?
Ans. -1

Qu. Could you check what this test reported for CN(C)C[C@H]1CC[C@@H](CN(C)C)C1=O ?
Ans. 1

Qu. Could you check what this test reported for O=Cc1cccc2ccc3ccccc3c12 ?
Ans. -1

Qu. Could you check what this test reported for c1ccc(-c2nc3cccnc3s2)cc1 ?
Ans. -1

Qu. Could you check what this test reported for Cc1ccc(N)c(S)c1 ?
Ans. 1

Qu. Could you check what this test reported for OC(c1ccc(F)cc1)(c1ccc(F)cc1)C1CC1 ?
Ans. 1

Qu. Could you check what this test reported for CCCCCCCC1(N=[N+]=[N-])C(=O)c2ccccc2N(C)C1=O (centres undefined) ?
Ans. 1

Qu. Could you check what this test reported for C/C(=N/NC(=S)N1CCCCCC1)c1cccc(/C(C)=N\NC(=S)N2CCCCCC2)n1 ?
Ans. 1

Qu. Could you check what this test reported for N#Cc1c(N)[nH]c2ccc(Sc3ccccc3)cc12 ?
Ans. -1

Qu. Could you check what this test reported for COc1cc(/C=C2\CCc3ccccc3C2=O)cc(OC)c1OC ?
Ans. -1

Qu. Could you check what this test reported for CNC1C(OC2C(OC3C(O)C(O)C(N=C(N)N)C(O)C3N=C(N)N)OC(C)C2(O)CO)OC(CO)C(O)C1O (centres undefined) ?
Ans. -1

Qu. Could you check what this test reported for S=C(N/N=C/c1ccccn1)Nc1ccc(Cl)cc1 ?
Ans. 1
